# target.or.test.system: GDP-bound KRAS protein (aa 1-169), containing both G12C and C118A amino acid substitutions (Homo sapiens (Human), UniProt P01116, C118A/G12C)
# Sequence (P01116 other isoform, or with tags, fused parts or gaps G12C/C118A): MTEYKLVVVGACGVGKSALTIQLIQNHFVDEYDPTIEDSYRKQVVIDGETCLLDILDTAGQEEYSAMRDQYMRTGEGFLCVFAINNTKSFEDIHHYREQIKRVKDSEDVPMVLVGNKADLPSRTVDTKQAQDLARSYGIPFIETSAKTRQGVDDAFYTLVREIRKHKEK
# procedure.summary: Coupled Nucleotide Exchange Assay
# Assay type: biochemical
# assay.context: 5 min compound pre-incubation; inhibition of SOS-mediated nucleotide exchange; AlphaScreen
# key: entry, value: IC50

Use the examples below as a reference point.
compound: C=CC(=O)N1[C@H](C)CN(c2nc(=O)n(-c3c(C(C)C)ncnc3C(C)C)c3nc(-c4ccccc4F)c(Cl)cc23)C[C@@H]1C
experimental.readout: IC50
value: 42 nM
--
compound: C=CC(=O)N1C[C@H](C)N(c2nc(=O)n(-c3c(C(C)C)ncnc3C(C)C)c3nc(-c4c(O)cccc4F)c(F)cc23)C[C@H]1C
experimental.readout: IC50
value: 136 nM
--
compound: C=CC(=O)N1[C@H](C)CN(c2nc(=O)n(-c3c(C(C)C)ncnc3C(C)C)c3nc(-c4ccccc4F)c(F)cc23)C[C@@H]1C
experimental.readout: IC50
value: 560 nM
--
compound: C=CC(=O)N1[C@H](C)CN(c2nc(=O)n(-c3c(C(C)C)ncnc3C(C)C)c3nc(-c4c(O)cccc4F)c(Cl)cc23)C[C@@H]1C
experimental.readout: IC50
value: 34 nM

Proceeding to the next compound to report its IC50.
## Input Quick one: give measured IC50 for C=CC(=O)N1[C@H](C)CN(c2nc(=O)n(-c3c(C)ccnc3C(C)C)c3nc(-c4c(N)cccc4F)c(F)cc23)C[C@@H]1C (atropisomer, axis not shown; (M))
## Output 69 nM

* * *

# Test system: Phosphorylation of ERK1/2 in MIA PaCa-2 cells
# procedure.summary: Phospho-ERK1/2 MSD Assay
# Type: cell-based
# assay.context: Homo sapiens, 2 hours compound treatment, 10 ng/mL EGF for 10 min, read-out: p-ERK IC50 (MIA PaCa-2)
experimental.readout: IC50
# output: number + unit

Use the examples below as a reference point.
compound: C=CC(=O)N1C[C@H](C)N(c2nc(=O)n(-c3c(C)ccnc3C(C)C)c3nc(-c4ccccc4F)c(Cl)cc23)C[C@H]1C
value: 26 nM
//
compound: C=CC(=O)N1[C@H](C)CN(c2nc(=O)n(-c3c(C(C)C)ncnc3C(C)C)c3nc(-c4c(N)cccc4F)c(Cl)cc23)C[C@@H]1C
value: 36 nM
//
compound: C=CC(=O)N1C[C@H](C)N(c2nc(=O)n(-c3c(C(C)C)ncnc3C(C)C)c3nc(-c4ccccc4F)c(Cl)cc23)C[C@H]1C
value: 26 nM
//
compound: C=CC(=O)N1[C@H](C)CN(c2nc(=O)n(-c3c(C)ccnc3C(C)C)c3nc(-c4c(N)cccc4F)c(F)cc23)C[C@@H]1C (atropisomer, axis not shown; (M))
value: 75 nM
//
compound: C=CC(=O)N1[C@H](C)CN(c2nc(=O)n(-c3c(C)ccnc3C(C)C)c3nc(-c4c(O)cccc4F)c(Cl)cc23)C[C@@H]1C (atropisomer, axis not shown; (M))
value: 35 nM

## Input Quick one: give measured IC50 for C=CC(=O)N1C[C@H](C)N(c2nc(=O)n(-c3c(C(C)C)ncnc3C(C)C)c3nc(-c4c(N)cccc4F)c(Cl)cc23)C[C@H]1C
## Output 21 nM

## Input Quick one: give measured IC50 for C=CC(=O)N1C[C@H](C)N(c2nc(=O)n(-c3c(C(C)C)ncnc3C(C)C)c3nc(-c4c(O)cccc4F)c(Cl)cc23)C[C@H]1C
## Output 15 nM

## Input Quick one: give measured IC50 for C=CC(=O)N1C[C@H](C)N(c2nc(=O)n(-c3c(C)ccnc3C(C)C)c3nc(-c4c(O)cccc4F)c(Cl)cc23)C[C@H]1C
## Output 16 nM

## Input Quick one: give measured IC50 for C=CC(=O)N1[C@H](C)CN(c2nc(=O)n(-c3c(C)ccnc3C(C)C)c3nc(-c4c(O)cccc4F)c(F)cc23)C[C@@H]1C (atropisomer, axis not shown; (M))
## Output 105 nM

## Input Quick one: give measured IC50 for C=CC(=O)N1C[C@H](C)N(c2nc(=O)n(-c3c(C)ccnc3C(C)C)c3nc(-c4c(N)cccc4F)c(Cl)cc23)C[C@H]1C
## Output 9 nM

## Input Quick one: give measured IC50 for C=CC(=O)N1[C@H](C)CN(c2nc(=O)n(-c3c(C)ccnc3C(C)C)c3nc(-c4c(N)cccc4F)c(Cl)cc23)C[C@@H]1C (atropisomer, axis not shown; (M))
## Output 15 nM

* * *

# key: entry, value: pIC50
# System: Phosphorylation of ERK1/2 in MIA PaCa-2 cells
# procedure.summary: Phospho-ERK1/2 MSD Assay
# Format: cell-based
# assay.context: Homo sapiens, 2 hours compound treatment, 10 ng/mL EGF for 10 min, read-out: p-ERK IC50 (MIA PaCa-2)
Hey, just a heads up that pIC50 is the negative log base 10 of the concentration in molar.

Use the examples below as a reference point.
compound: C=CC(=O)N1C[C@H](C)N(c2nc(=O)n(-c3c(C(C)C)ncnc3C(C)C)c3nc(-c4c(N)cccc4F)c(F)cc23)C[C@H]1C
pIC50: 7.06
--
compound: C=CC(=O)N1C[C@H](C)N(c2nc(=O)n(-c3c(C)ccnc3C(C)C)c3nc(-c4c(N)cccc4F)c(F)cc23)C[C@H]1C
pIC50: 7.59
--
compound: C=CC(=O)N1[C@H](C)CN(c2nc(=O)n(-c3c(C(C)C)ncnc3C(C)C)c3nc(-c4c(O)cccc4F)c(F)cc23)C[C@@H]1C
pIC50: 6.88
--
compound: C=CC(=O)N1[C@H](C)CN(c2nc(=O)n(-c3c(C(C)C)ncnc3C(C)C)c3nc(-c4c(O)cccc4F)c(Cl)cc23)C[C@@H]1C
pIC50: 7.66
--
compound: C=CC(=O)N1[C@H](C)CN(c2nc(=O)n(-c3c(C)ccnc3C(C)C)c3nc(-c4ccccc4F)c(Cl)cc23)C[C@@H]1C (atropisomer, axis not shown; (M))
pIC50: 7.34
--
compound: C=CC(=O)N1C[C@H](C)N(c2nc(=O)n(-c3c(C)ccnc3C(C)C)c3nc(-c4c(O)cccc4F)c(F)cc23)C[C@H]1C
pIC50: 7.34

## Input Quick one: give measured pIC50 for C=CC(=O)N1C[C@H](C)N(c2nc(=O)n(-c3c(C)ccnc3C(C)C)c3nc(-c4ccccc4F)c(F)cc23)C[C@H]1C
## Output 6.99

## Input Quick one: give measured pIC50 for C=CC(=O)N1[C@H](C)CN(c2nc(=O)n(-c3c(C(C)C)ncnc3C(C)C)c3nc(-c4ccccc4F)c(Cl)cc23)C[C@@H]1C
## Output 7.21

## Input Quick one: give measured pIC50 for C=CC(=O)N1C[C@H](C)N(c2nc(=O)n(-c3c(C(C)C)ncnc3C(C)C)c3nc(-c4c(O)cccc4F)c(F)cc23)C[C@H]1C
## Output 6.99

* * *

# target.or.test.system: GDP-bound KRAS protein (aa 1-169), containing both G12C and C118A amino acid substitutions (Homo sapiens (Human), UniProt P01116, C118A/G12C)
# procedure.summary: Coupled Nucleotide Exchange Assay
# assay.context: 5 min compound pre-incubation; inhibition of SOS-mediated nucleotide exchange; AlphaScreen
pIC50: −log10 of the molar value.
Entry flag: Satisfied if pIC50 reaches 7; Not satisfied if it does not.

The following molecules have reported results that may help.
molecule: C=CC(=O)N1C[C@H](C)N(c2nc(=O)n(-c3c(C(C)C)ncnc3C(C)C)c3nc(-c4ccccc4F)c(Cl)cc23)C[C@H]1C
label.class: Satisfied
//
molecule: C=CC(=O)N1C[C@H](C)N(c2nc(=O)n(-c3c(C)ccnc3C(C)C)c3nc(-c4c(N)cccc4F)c(F)cc23)C[C@H]1C
label.class: Satisfied
//
molecule: C=CC(=O)N1C[C@H](C)N(c2nc(=O)n(-c3c(C(C)C)ncnc3C(C)C)c3nc(-c4c(O)cccc4F)c(Cl)cc23)C[C@H]1C
label.class: Satisfied
//
molecule: C=CC(=O)N1C[C@H](C)N(c2nc(=O)n(-c3c(C(C)C)ncnc3C(C)C)c3nc(-c4c(N)cccc4F)c(Cl)cc23)C[C@H]1C
label.class: Satisfied
//
molecule: C=CC(=O)N1[C@H](C)CN(c2nc(=O)n(-c3c(C)ccnc3C(C)C)c3nc(-c4ccccc4F)c(F)cc23)C[C@@H]1C (atropisomer, axis not shown; (M))
label.class: Not satisfied
//
molecule: C=CC(=O)N1[C@H](C)CN(c2nc(=O)n(-c3c(C(C)C)ncnc3C(C)C)c3nc(-c4c(N)cccc4F)c(F)cc23)C[C@@H]1C
label.class: Not satisfied
//
molecule: C=CC(=O)N1C[C@H](C)N(c2nc(=O)n(-c3c(C)ccnc3C(C)C)c3nc(-c4c(O)cccc4F)c(Cl)cc23)C[C@H]1C
label.class: Satisfied
//
molecule: C=CC(=O)N1C[C@H](C)N(c2nc(=O)n(-c3c(C)ccnc3C(C)C)c3nc(-c4ccccc4F)c(F)cc23)C[C@H]1C
label.class: Not satisfied
//
molecule: C=CC(=O)N1C[C@H](C)N(c2nc(=O)n(-c3c(C)ccnc3C(C)C)c3nc(-c4c(N)cccc4F)c(Cl)cc23)C[C@H]1C
label.class: Satisfied
//
molecule: C=CC(=O)N1[C@H](C)CN(c2nc(=O)n(-c3c(C(C)C)ncnc3C(C)C)c3nc(-c4c(O)cccc4F)c(F)cc23)C[C@@H]1C
label.class: Not satisfied

## Input Quick check: does C=CC(=O)N1C[C@H](C)N(c2nc(=O)n(-c3c(C(C)C)ncnc3C(C)C)c3nc(-c4c(N)cccc4F)c(F)cc23)C[C@H]1C have pIC50 greater than or equal to 7?
## Output Not satisfied

## Input Quick check: does C=CC(=O)N1[C@H](C)CN(c2nc(=O)n(-c3c(C)ccnc3C(C)C)c3nc(-c4ccccc4F)c(Cl)cc23)C[C@@H]1C (atropisomer, axis not shown; (M)) have pIC50 greater than or equal to 7?
## Output Satisfied

## Input Quick check: does C=CC(=O)N1C[C@H](C)N(c2nc(=O)n(-c3c(C)ccnc3C(C)C)c3nc(-c4ccccc4F)c(Cl)cc23)C[C@H]1C have pIC50 greater than or equal to 7?
## Output Satisfied

## Input Quick check: does C=CC(=O)N1[C@H](C)CN(c2nc(=O)n(-c3c(C)ccnc3C(C)C)c3nc(-c4c(O)cccc4F)c(Cl)cc23)C[C@@H]1C (atropisomer, axis not shown; (M)) have pIC50 greater than or equal to 7?
## Output Satisfied
